Cited source: patent US10479780B2

Record form. Attribute: IC50. Fill in for each entry.
- test-target: human Src enzyme (Homo sapiens, UniProt P12931)
- Construct: purchased Carna Biosciences, Inc. 08-173
- Sequence (P12931 whole entry): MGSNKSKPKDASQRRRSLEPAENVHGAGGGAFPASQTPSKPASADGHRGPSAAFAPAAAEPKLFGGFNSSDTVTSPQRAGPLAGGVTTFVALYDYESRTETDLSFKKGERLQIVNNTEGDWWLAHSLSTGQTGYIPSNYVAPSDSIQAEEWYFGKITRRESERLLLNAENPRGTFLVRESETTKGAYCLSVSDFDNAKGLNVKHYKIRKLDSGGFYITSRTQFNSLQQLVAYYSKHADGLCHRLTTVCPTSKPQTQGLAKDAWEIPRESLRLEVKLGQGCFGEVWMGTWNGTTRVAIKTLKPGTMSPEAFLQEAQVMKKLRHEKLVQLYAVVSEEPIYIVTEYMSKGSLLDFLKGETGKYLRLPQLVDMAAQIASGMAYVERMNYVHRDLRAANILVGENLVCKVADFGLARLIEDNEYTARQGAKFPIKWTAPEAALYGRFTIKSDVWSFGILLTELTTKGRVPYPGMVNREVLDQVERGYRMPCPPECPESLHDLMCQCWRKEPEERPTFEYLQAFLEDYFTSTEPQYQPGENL
- protocol-summary: Src enzyme inhibitory activity (time-resolved fluorometry, biotinylated peptide phosphorylation)
- Format: biochemical
- condition: biotinylated peptide phosphorylation, read-out: SRC_IC50
One number for each entry, in nM.

The examples below pair each entry with its known result.
Cc1cc(Oc2c(F)cccc2F)ncc1-n1ncc(C(=O)c2cc3cc(OCC(F)F)c(N4CCC(N5CCOCC5)CC4)cc3[nH]2)c1N [Example 4-25-027] = 23
COc1cccc(S(=O)(=O)Nc2cc3[nH]c(C(=O)c4cnn(-c5cnc(Oc6ccccc6F)cc5C)c4N)cc3cc2C)n1 [Example 5-1-483] = 710
Cc1cc(Oc2ccccc2F)ccc1-n1ncc(C(=O)c2cc3cc(OCC(F)F)c(C4CCN(S(=O)(=O)C5CC5)CC4)cc3[nH]2)c1N [Example 4-17-016] = 15
Cc1cc(Oc2ccccc2F)ccc1-n1ncc(C(=O)c2cc3cc(F)c(N4C(=O)NC5(CCCC5)C4=O)cc3[nH]2)c1N [Example 5-1-438] = 120
Cc1cc(Oc2c(F)cccc2F)ncc1-n1ncc(C(=O)c2cc3cc(F)c(N4C(=O)[C@@H]5CCCN5C4=O)cc3[nH]2)c1N [Example 5-1-432] = 96

Continue with the compound presented below.
Record Cc1cc(Oc2ccccc2F)ncc1-n1ncc(C(=O)c2cc3cc(N4CCOCC4)c(N4CCCS4(=O)=O)cc3[nH]2)c1N [Example 4-25-007] . Reported IC50: 23

---

Record form. Attribute: IC50. Fill in for each entry.
- test-target: human Lck enzyme (Homo sapiens)
- Construct: purchased Carna Biosciences, Inc. 08-170
- Sequence (P06239 whole entry): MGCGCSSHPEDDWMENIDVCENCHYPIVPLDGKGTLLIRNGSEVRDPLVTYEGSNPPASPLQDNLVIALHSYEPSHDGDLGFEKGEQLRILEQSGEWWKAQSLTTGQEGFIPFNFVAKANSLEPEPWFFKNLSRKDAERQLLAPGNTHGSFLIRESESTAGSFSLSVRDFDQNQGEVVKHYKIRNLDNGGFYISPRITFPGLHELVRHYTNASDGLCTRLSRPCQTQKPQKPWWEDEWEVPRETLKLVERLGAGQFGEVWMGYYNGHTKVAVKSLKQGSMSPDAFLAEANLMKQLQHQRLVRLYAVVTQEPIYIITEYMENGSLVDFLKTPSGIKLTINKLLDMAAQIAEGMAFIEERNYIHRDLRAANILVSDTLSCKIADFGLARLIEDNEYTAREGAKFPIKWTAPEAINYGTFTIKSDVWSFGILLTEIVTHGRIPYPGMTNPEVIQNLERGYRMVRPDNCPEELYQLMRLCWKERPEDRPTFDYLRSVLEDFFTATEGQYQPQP
- protocol-summary: Lck enzyme inhibitory activity (time-resolved fluorometry, biotinylated peptide phosphorylation)
- Type: biochemical
- condition: biotinylated peptide phosphorylation, read-out: LCK_IC50
Answers are plain numbers, in nM.

The examples below pair each entry with its known result.
Cc1cc(Oc2ccccc2)cc(F)c1-n1ncc(C(=O)c2cc3cc(F)c(NS(=O)(=O)C4CC4)cc3[nH]2)c1N = 73
CC(C)N1CCC(c2cc3cc(C(=O)c4cnn(-c5ccc(Oc6cccc(Cl)c6)cc5)c4N)[nH]c3cc2F)CC1 = 5
Cc1cc(Oc2ccccc2F)ncc1-n1ncc(C(=O)c2cc3cc(F)c(NS(=O)(=O)c4cncc(F)c4)cc3[nH]2)c1N = 80
Cc1cc(Oc2c(F)cccc2F)ncc1-n1ncc(C(=O)c2cc3cc(OC(F)F)c(N4CCOCC4)cc3[nH]2)c1N = 16
Cc1cc(Oc2ccccc2F)ccc1-n1ncc(C(=O)c2cc3cc(F)c(NS(=O)(=O)C4CC4)cc3[nH]2)c1N = 24

Answer for every listed entry: what is its IC50? The entries follow.
1. Cc1cc(Oc2cccc(F)c2F)ncc1-n1ncc(C(=O)c2cc3cc(F)c(NS(=O)(=O)C4CC4)cc3[nH]2)c1N
2. Cc1cc(Oc2c(F)cccc2F)ncc1-n1ncc(C(=O)c2cc3cc(OCC(F)F)c(NS(=O)(=O)c4cncc(Cl)c4)cc3[nH]2)c1N
3. Cc1cc(Oc2ccccc2F)ncc1-n1ncc(C(=O)c2cc3cc(F)c(NS(=O)(=O)c4cccc(F)n4)cc3[nH]2)c1N
4. Cc1cc(Oc2ccccc2F)cc(F)c1-n1ncc(C(=O)c2cc3cc(OCC(F)F)c(C4CCN(S(C)(=O)=O)CC4)cc3[nH]2)c1N
5. Cc1cc(Oc2ccccc2F)ncc1-n1ncc(C(=O)c2cc3cc(F)c(NS(=O)(=O)CCCF)cc3[nH]2)c1N
6. COc1cc2[nH]c(C(=O)c3cnn(-c4ccc(Oc5ccccc5F)cc4C)c3N)cc2cc1NS(C)(=O)=O
7. Cc1cc(Oc2cccc(Cl)c2)ncc1-n1ncc(C(=O)c2cc3cc(F)c(NS(=O)(=O)C4CC4)cc3[nH]2)c1N
8. Cc1cc(Oc2ccccc2F)ccc1-n1ncc(C(=O)c2cc3cc(F)c(NS(=O)(=O)C4(CC(O)CO)CC4)cc3[nH]2)c1N (stereo not shown)

[89, 46, 120, 11, 11, 1.3, 110, 14]

---

Record form. Attribute: pIC50. Fill in for each entry.
- test-target: human Yes1 enzyme (Homo sapiens, UniProt P07947)
- Construct: made in house
- Sequence (P07947 whole entry): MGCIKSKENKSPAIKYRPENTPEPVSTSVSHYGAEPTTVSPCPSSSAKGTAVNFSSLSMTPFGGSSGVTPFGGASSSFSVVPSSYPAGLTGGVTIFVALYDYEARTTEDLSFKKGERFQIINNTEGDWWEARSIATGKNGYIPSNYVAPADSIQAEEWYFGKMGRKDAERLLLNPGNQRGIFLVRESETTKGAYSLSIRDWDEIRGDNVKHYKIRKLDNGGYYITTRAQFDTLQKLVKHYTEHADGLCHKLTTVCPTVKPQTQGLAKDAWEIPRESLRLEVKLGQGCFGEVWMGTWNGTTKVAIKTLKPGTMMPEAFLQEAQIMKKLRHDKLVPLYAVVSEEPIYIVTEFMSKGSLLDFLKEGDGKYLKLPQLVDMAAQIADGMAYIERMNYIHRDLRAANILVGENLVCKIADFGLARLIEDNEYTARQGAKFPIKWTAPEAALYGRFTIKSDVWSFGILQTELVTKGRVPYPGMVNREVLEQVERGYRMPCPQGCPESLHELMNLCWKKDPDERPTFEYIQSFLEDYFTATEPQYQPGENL
- protocol-summary: Yes1 enzyme inhibitory activity (time-resolved fluorometry, biotinylated peptide phosphorylation)
- Type: biochemical
- condition: biotinylated peptide phosphorylation, read-out: YES_IC50
Numbers only, as −log10 of the molar value.

Answer for every listed entry: what is its pIC50? The entries follow.
1. COc1cc2cc(C(=O)c3cnn(-c4cnc(Oc5c(F)cccc5F)cc4C)c3N)[nH]c2cc1NS(=O)(=O)CC(=O)N1CCCC1
2. Cc1cc(Oc2c(F)cccc2F)ncc1-n1ncc(C(=O)c2cc3cc(F)c(NS(=O)(=O)c4cccc(C#N)n4)cc3[nH]2)c1N
3. Cc1cc(Oc2cccc(Cl)c2)ncc1-n1ncc(C(=O)c2cc3cc(F)c(NS(=O)(=O)C4CC4)cc3[nH]2)c1N
4. Cc1cc2cc(C(=O)c3cnn(-c4cnc(Oc5ccccc5F)cc4C)c3N)[nH]c2cc1NS(=O)(=O)c1cc(Cl)cc(C#N)c1
5. Cc1cc(Oc2ccccc2F)ccc1-n1ncc(C(=O)c2cc3cc(F)c(NS(=O)(=O)c4cccc(Cl)c4)cc3[nH]2)c1N
6. Cc1cc(Oc2ccccc2F)ccc1-n1ncc(C(=O)c2cc3cc(F)c(NS(=O)(=O)NC4CC4)cc3[nH]2)c1N

9.03
8.02
8.34
8.06
8.31
8.74

---

- test-target: human Yes1 enzyme (Homo sapiens, UniProt P07947)
- Construct: made in house
- protocol-summary: Yes1 enzyme inhibitory activity (time-resolved fluorometry, biotinylated peptide phosphorylation)
- Format: biochemical
- condition: biotinylated peptide phosphorylation, read-out: YES_IC50
Categorized via IC50: group A = under 2 nM, group B = from 2 nM up to 4 nM, group C = 4 nM and over

Worked set:
Cc1cc(Oc2ccccc2F)ncc1-n1ncc(C(=O)c2cc3cc(N4CCOCC4)c(NS(=O)(=O)C4CC4)cc3[nH]2)c1N [Example 4-24-014] = group C
COc1cc2cc(C(=O)c3cnn(-c4cnc(Oc5ccccc5F)cc4C)c3N)[nH]c2cc1N1CCCS1(=O)=O [Example 4-14-001] = group A
Cc1cc(Oc2c(F)cccc2F)ncc1-n1ncc(C(=O)c2cc3cc(F)c(NS(=O)(=O)c4cccc(F)n4)cc3[nH]2)c1N [Example 5-1-518] = group C
Cc1cc(Oc2ccccc2F)cc(F)c1-n1ncc(C(=O)c2cc3cc(OC(F)F)c(N4CCOCC4)cc3[nH]2)c1N [Example 4-25-025] = group C
Cc1cc(Oc2c(F)cccc2F)ncc1-n1ncc(C(=O)c2cc3cc(F)c(N4C(=O)[C@@H]5CCCN5C4=O)cc3[nH]2)c1N [Example 5-1-432] = group B
Cc1cc(Oc2c(F)cccc2F)ncc1-n1ncc(C(=O)c2cc3cc(N4CCOCC4)c(N4CCCS4(=O)=O)cc3[nH]2)c1N [Example 4-25-008] = group A
Cc1cc2cc(C(=O)c3cnn(-c4cnc(Oc5c(F)cccc5F)cc4C)c3N)[nH]c2cc1NS(C)(=O)=O [Example 4-1-001] = group A
CCN(CC)C(=O)CS(=O)(=O)Nc1cc2[nH]c(C(=O)c3cnn(-c4cnc(Oc5ccccc5F)cc4C)c3N)cc2cc1F [Example 4-10-001] = group B
Cc1cnc(F)c(S(=O)(=O)Nc2cc3[nH]c(C(=O)c4cnn(-c5cnc(Oc6ccccc6F)cc5C)c4N)cc3cc2C)c1 [Example 5-1-504] = group B
Cc1cc(Oc2cccc(F)c2F)cc(F)c1-n1ncc(C(=O)c2cc3cc(NS(C)(=O)=O)c(F)cc3[nH]2)c1N [Example 4-2-100] = group A

Please classify: Cc1cc(Oc2c(F)cccc2F)ncc1-n1ncc(C(=O)c2cc3cc(OCC(F)F)c(NS(=O)(=O)C4CC4)cc3[nH]2)c1N [Example 4-24-030]
group A

Please classify: Cc1cc2cc(C(=O)c3cnn(-c4cnc(Oc5ccccc5F)cc4C)c3N)[nH]c2cc1NS(=O)(=O)c1cccc(C#N)c1 [Example 5-1-440]
group B

---

- test-target: human Yes1 enzyme (Homo sapiens, UniProt P07947)
- Construct: made in house
- protocol-summary: Yes1 enzyme inhibitory activity (time-resolved fluorometry, biotinylated peptide phosphorylation)
- Assay type: biochemical
- condition: biotinylated peptide phosphorylation, read-out: YES_IC50
Assign labels as follows, please: condition met for IC50 below 5 nM; condition not met for IC50 equal to or exceeding 5 nM.

Cc1cc2cc(C(=O)c3cnn(-c4cnc(Oc5ccccc5Cl)cc4C)c3N)[nH]c2cc1NS(=O)(=O)N1CCOCC1 = condition not met

Lab note: IC50 threshold 5 nM. Does this compound come in strictly under it? "Cc1cc2cc(C(=O)c3cnn(-c4cnc(Oc5ccccc5F)cc4C)c3N)[nH]c2cc1NS(=O)(=O)N1CCOCC1"
condition met

Lab note: IC50 threshold 5 nM. Does this compound come in strictly under it? "Cc1cc(Oc2cccc(F)c2F)ccc1-n1ncc(C(=O)c2cc3cc(F)c(NS(C)(=O)=O)cc3[nH]2)c1N"
condition met

Lab note: IC50 threshold 5 nM. Does this compound come in strictly under it? "Cc1cc(Oc2ccccc2F)ccc1-n1ncc(C(=O)c2cc3cc(F)c(N4C(=O)NC5(CCCCC5)C4=O)cc3[nH]2)c1N"
condition met

Lab note: IC50 threshold 5 nM. Does this compound come in strictly under it? Cc1cc2cc(C(=O)c3cnn(-c4cnc(Oc5c(F)cccc5F)cc4C)c3N)[nH]c2cc1N1C(=O)NC(C)(C(F)(F)F)C1=O (stereo not drawn)
condition not met
